# run.description: Partition coefficient (logD7.4)
# Format: physicochemical
# setup.conditions: octanol/water, pH 7.4
property.name: logD

[I] CCCCn1ccc(=O)c(O)c1C
[II] CCNC(=O)CCn1ccc(=O)c(O)c1C
Query: Decide: I or II , by lowest recorded logD. To answer, give the label that identifies your chosen option.
Result: II
(II: -0.82, I: 0.7)

====

# run.description: Compound was tested for equilibrium constants (pKa3) of the (carboxyalkyl) pyridinone corresponds to the […] function spectrophotometrically..
# Assay type: physicochemical
# setup.conditions: read-out: pKa3
property.name: pKa

molecule.smiles | pKa
CCc1c(O)c(=O)ccn1CCC(=O)O | 9.91
CCc1c(O)c(=O)ccn1CCCC(=O)O | 9.99
Cc1c(O)c(=O)ccn1CCC(=O)O | 9.51
